- target-under-test: PRMT5-MEP50 enzyme (Homo sapiens, UniProt O14744)
- Construct: One virus expresses full length human PRMT5 with Flag-tag at N-terminus; Flag (N); purchased Charles River (Argenta); host or cells: insect cells (Sf9), baculovirus co-infection
- Sequence (O14744 whole entry): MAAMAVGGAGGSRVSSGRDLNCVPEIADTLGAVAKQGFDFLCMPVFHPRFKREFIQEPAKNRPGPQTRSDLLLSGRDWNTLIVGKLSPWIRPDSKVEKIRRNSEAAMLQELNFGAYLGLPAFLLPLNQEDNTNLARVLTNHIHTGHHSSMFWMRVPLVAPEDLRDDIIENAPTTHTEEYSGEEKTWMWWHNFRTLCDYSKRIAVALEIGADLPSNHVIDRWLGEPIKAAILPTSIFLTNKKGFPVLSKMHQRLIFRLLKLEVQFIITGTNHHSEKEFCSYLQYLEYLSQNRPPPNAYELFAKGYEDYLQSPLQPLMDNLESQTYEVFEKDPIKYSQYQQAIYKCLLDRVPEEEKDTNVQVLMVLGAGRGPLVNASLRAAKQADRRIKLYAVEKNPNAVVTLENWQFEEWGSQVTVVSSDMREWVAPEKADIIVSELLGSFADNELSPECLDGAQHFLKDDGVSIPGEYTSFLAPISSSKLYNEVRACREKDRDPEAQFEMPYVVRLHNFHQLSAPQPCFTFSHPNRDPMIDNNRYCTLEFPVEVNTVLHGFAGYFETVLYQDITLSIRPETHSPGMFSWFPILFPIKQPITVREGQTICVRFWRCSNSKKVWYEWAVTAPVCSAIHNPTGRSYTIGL
- Sequence (Q9BQA1 whole entry partner): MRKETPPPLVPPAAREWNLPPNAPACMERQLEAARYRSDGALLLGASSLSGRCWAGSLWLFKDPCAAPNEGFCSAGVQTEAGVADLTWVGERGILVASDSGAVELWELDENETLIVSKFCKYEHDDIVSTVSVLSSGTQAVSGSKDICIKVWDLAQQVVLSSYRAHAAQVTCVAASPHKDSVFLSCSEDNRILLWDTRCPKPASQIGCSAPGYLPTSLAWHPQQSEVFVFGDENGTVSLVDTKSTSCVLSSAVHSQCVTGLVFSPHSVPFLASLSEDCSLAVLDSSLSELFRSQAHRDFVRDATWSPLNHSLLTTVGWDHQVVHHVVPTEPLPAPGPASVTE
- measurement-description: In vitro assay 1b: PRMT5-MEP50 high throughput mass spectrometer assay (SAH formation), 1.25 nM enzyme
- Type: biochemical
- test-conditions: 1.25 nM enzyme, 1 μM SAM, 0.3 μM H2A, 30° C., 120 min; averaged values; read-out: pIC50 Assay 1b (converted)
outcome-measure: IC50 (nM)

P: Nc1cccc(CCC[C@H]2C[C@@H](n3ccc4c(N)ncnc43)[C@H](O)[C@@H]2O)n1
Q: Cc1cnc2cc(CC[C@H]3C[C@@H](n4cc(Br)c5c(N)ncnc54)[C@H](O)[C@@H]3O)ccn12
R: Nc1ncnc2c1ccn2[C@@H]1C[C@H](CCCCc2cccc3ccncc23)[C@@H](O)[C@H]1O
# rank above entries by IC50 (max first, min last) List each label, following the requested order.
P, R, Q

1: Nc1ncnc2c1ccn2[C@@H]1C[C@H](CCCCc2cnc3ccccc3c2)[C@@H](O)[C@H]1O
2: Nc1ncnc2c1ccn2[C@@H]1C[C@H](CCCc2cccc3ccncc23)[C@@H](O)[C@H]1O
Hi there, can you help? I need to know whether 1 or 2 has lower measured IC50. Label of pick, please.
2
(2: 316 nM, 1: 794 nM)

I: Nc1ncnc2c1ccn2[C@@H]1C[C@H](CCc2cnc(Nc3ccc(Cl)cc3)nc2)[C@@H](O)[C@H]1O
II: Nc1ncnc2c1ccn2[C@@H]1C[C@H](CCCc2ccn3ccnc3c2)[C@@H](O)[C@H]1O
Hi there, can you help? I need to know whether I or II has lower measured IC50. Label of pick, please.
II
(II: 31.6 nM, I: 501 nM)

1: Nc1ccc(CCC[C@H]2C[C@@H](n3ccc4c(N)ncnc43)[C@H](O)[C@@H]2O)cn1
2: Cn1cncc1CC[C@H]1C[C@@H](n2ccc3c(N)ncnc32)[C@H](O)[C@@H]1O
3: Nc1ccc2cccc(CCCC[C@H]3C[C@@H](n4ccc5c(N)ncnc54)[C@H](O)[C@@H]3O)c2n1
Put the items in sequence by IC50, from largest down. List each label, following the requested order.
2, 3, 1

* * *

- target-under-test: PRMT5-MEP50 enzyme (Homo sapiens, UniProt O14744)
- Construct: One virus expresses full length human PRMT5 with Flag-tag at N-terminus; Flag (N); purchased Charles River (Argenta); host or cells: insect cells (Sf9), baculovirus co-infection
- measurement-description: In vitro assay 1a: PRMT5-MEP50 high throughput mass spectrometer assay (SAH formation), 10 nM enzyme
- Type: biochemical
- test-conditions: 1 μM SAM, 0.3 μM H2A, 30° C., 60 min, averaged values, read-out: pIC50 Assay 1a (converted)
outcome-measure: IC50 (nM)

Known IC50 results, listed for orientation:
[
  {
    "structure-as-smiles": "Nc1nc2cc(CC[C@H]3C[C@@H](n4ccc5c(N)ncnc54)[C@H](O)[C@@H]3O)ccc2s1",
    "uom": "nM",
    "obs-value": 2
  },
  {
    "structure-as-smiles": "Nc1ncnc2c1ccn2[C@@H]1C[C@H](CCc2ccn3c(Cl)cnc3c2)[C@@H](O)[C@H]1O",
    "uom": "nM",
    "obs-value": 2
  },
  {
    "structure-as-smiles": "CNc1nc2cc(CC[C@H]3C[C@@H](n4ccc5c(N)ncnc54)[C@H](O)[C@@H]3O)ccc2s1",
    "uom": "nM",
    "obs-value": 6.31
  }
]

A: Nc1ncnc2c1ccn2[C@@H]1C[C@H](CCc2ccn3ccnc3c2)[C@@H](O)[C@H]1O
B: Nc1nc2cc(CC[C@H]3C[C@@H](n4ccc5c(Cl)ncnc54)[C@H](O)[C@@H]3O)ccc2s1
Endpoint returns the identifier whose IC50 is numerically larger, either A or B . Label of pick, please.
B

* * *

- target-under-test: PRMT5-MEP50 enzyme (Homo sapiens)
- Construct: One virus expresses full length human PRMT5 with Flag-tag at N-terminus; Flag (N); purchased Charles River (Argenta); host or cells: insect cells (Sf9), baculovirus co-infection
- measurement-description: In vitro assay 1b: PRMT5-MEP50 high throughput mass spectrometer assay (SAH formation), 1.25 nM enzyme
- Assay type: biochemical
- test-conditions: 1.25 nM enzyme, 1 μM SAM, 0.3 μM H2A, 30° C., 120 min; averaged values; read-out: pIC50 Assay 1b (converted)
- Description: Experimental Procedures In Vitro Assay (Assay 1a and 1b) PRMT5-MEP50 enzyme was purchased from Charles River (Argenta). The enzyme complex was produced in insect cells (Sf9) infected simultaneously with two baculoviruses. One virus expresses full length human PRMT5 with Flag-tag at N-terminus, the second virus expresses full length MEP50 with His6-TEV cleavage at N-terminus. […]
outcome-measure: IC50 (nM)

[
  {
    "compound": "Nc1cc2cccc(CCCC[C@H]3C[C@@H](n4ccc5c(N)ncnc54)[C@H](O)[C@@H]3O)c2cn1",
    "obs-value": 100
  },
  {
    "compound": "Nc1ccc(/C=C/[C@H]2C[C@@H](n3ccc4c(N)ncnc43)[C@H](O)[C@@H]2O)cn1",
    "obs-value": 63.1
  },
  {
    "compound": "Nc1cccc(/C=C/[C@H]2C[C@@H](n3ccc4c(N)ncnc43)[C@H](O)[C@@H]2O)n1",
    "obs-value": 794
  },
  {
    "compound": "CC(c1cncn1C)[C@H]1C[C@@H](n2ccc3c(N)ncnc32)[C@H](O)[C@@H]1O (stereo partly drawn)",
    "obs-value": 2000
  },
  {
    "compound": "Nc1cc(CC[C@H]2C[C@@H](n3ccc4c(N)ncnc43)[C@H](O)[C@@H]2O)ccn1",
    "obs-value": 398
  }
]

a: Nc1ncnc2c1ccn2[C@@H]1C[C@H](CCc2ccn3c(C4CC4)cnc3c2)[C@@H](O)[C@H]1O
b: Nc1ncnc2c1ccn2[C@@H]1C[C@H](CCc2ccn3c(Br)cnc3c2)[C@@H](O)[C@H]1O
Hi there, can you help? I need to know whether a or b has lower measured IC50. Label of pick, please.
b

a: Cc1cnc2c(Cl)c(CC[C@H]3C[C@@H](n4ccc5c(N)ncnc54)[C@H](O)[C@@H]3O)ccn12
b: Nc1ncnc2c1ccn2[C@@H]1C[C@H](CCCCc2ccccn2)[C@@H](O)[C@H]1O
Hi there, can you help? I need to know whether a or b has lower measured IC50. Label of pick, please.
a

P: Nc1cc(/C=C/[C@H]2C[C@@H](n3ccc4c(N)ncnc43)[C@H](O)[C@@H]2O)ccn1
Q: Nc1ncnc2c1ccn2[C@@H]1C[C@H](CCc2cnc3c(c2)OCCN3)[C@@H](O)[C@H]1O
Hi there, can you help? I need to know whether P or Q has lower measured IC50. Label of pick, please.
Q
